Tgt: tau (Homo sapiens, UniProt P10636)
Sequence (P10636 623-695 limits assumed): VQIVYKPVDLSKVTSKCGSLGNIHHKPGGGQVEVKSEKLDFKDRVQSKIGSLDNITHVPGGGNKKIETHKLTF
Assay details: MCE Phenols Library screening, tau biosensor cell seeding assay (AvZ)
Assay type: cell-based
Condition description: Z score, replicate 1
Observable: Z repl 1

| Given smiles | Recorded result |
| --- | --- |
| O=c1ccc2ccc(O)cc2o1 | -1.269 |
| O=C(O[C@H]1[C@H](Oc2c(-c3ccc(O)c(O)c3)oc3cc(O)cc(O)c3c2=O)O[C@H](CO)[C@H](O)[C@@H]1O)c1cc(O)c(O)c(O)c1 | -0.93 |
| O=c1c(O)c(-c2ccccc2)oc2cc(O)cc(O)c12 | 0.212 |

---

Tgt: tau (Homo sapiens, UniProt P10636)
Assay details: MCE Phenols Library screening, tau biosensor cell seeding assay (AvZ)
Type: cell-based
Condition description: 10 μM phenol in cell cultures, AD brain homogenate preincubated 16 hours, two biological replicates; positive = catalyzes seeding, negative = inhibits
Please mark 1 (yes) if the recorded AvZ (average z score of seeding, SDs from the mean level of seeding) is equal to or greater than 0.003, and 0 (no) if it falls below.

| Compound | Cat |
| --- | --- |
| COC(=O)/C=C/c1ccc(O)cc1 [(E)-Methyl 4-coumarate] | 1 (yes) |
| COc1cc(O)cc(OC)c1 | 1 (yes) |
| COC(=O)/C=C/c1ccc(O)c(O)c1 [Methyl caffeate] | 0 (no) |
| CCCCCCCCC/C=C/C(=O)CCc1ccc(O)c(OC)c1 | 0 (no) |
| COc1cc(C(=O)O)cc(OC)c1O | 1 (yes) |
| COc1cc2c(CCNC(C)=O)c[nH]c2cc1O [6-Hydroxymelatonin] | 0 (no) |
| COc1ccc(O)c(C(=O)O)c1 | 1 (yes) |
| CC(=O)c1ccc(O)c(O)c1 [3',4'-Dihydroxyacetophenone] | 0 (no) |
